- assayMethodText: Inhibition of human gamma-secretase expressed in CHO cells assessed as effect on Notch1 processing at 100 uM using N100-Flag as substrate incubated for 4 hrs by Western blot analysis relative to DMSO control
- Type: cell-based
resultType: inhibition (INH)

>>> df
                                  molsmiles        resulttype    measured
0  COc1cccc(CN(C(=O)c2ccc3ccccc3c2)C(C)C)c1  inhibition (INH)  Not Active
1  CC(C)N(Cc1ccccc1)C(=O)c1cnc2cc(Cl)ccc2c1O  inhibition (INH)  Not Active
2  COc1cc(CN(C(=O)c2ccc3ccccc3c2)C(C)C)cc(OC)c1  inhibition (INH)  Not Active
3  CCOc1cccc2cc(C(=O)N(Cc3ccc(Cl)c(Cl)c3)C(C)C)oc12  inhibition (INH)  Not Active

q: Can you share its inhibition (INH)? I mean this compound: COc1cccc2cc(C(=O)N(Cc3ccc(Cl)c(Cl)c3)C(C)C)oc12
a: Not Active

q: Ok, now CC(C)N(Cc1ccccc1)C(=O)c1ccc2ccccc2c1O
a: Not Active

q: Ok, now CC(C)N(Cc1ccccc1)C(=O)c1ccc(C(C)(C)C)cc1
a: Active

q: Ok, now CC(C)N(Cc1ccc(F)c(F)c1)C(=O)c1ccc2ccccc2c1
a: Not Active

q: Ok, now CC(C)(C)N(Cc1ccccc1)C(=O)c1ccc2ccccc2c1
a: Not Active

q: Ok, now CC(C)N(Cc1ccccc1)C(=O)c1cc2ccccc2o1
a: Not Active

q: Ok, now CC(C)N(Cc1ccccc1)C(=O)c1cccc(Oc2ccccc2)c1
a: Active

q: Ok, now CC(C)N(Cc1ccc(Cl)c(Cl)c1)C(=O)c1ccc2ccccc2c1O
a: Not Active
